All values here come from ChEMBL document CHEMBL1201862.

GI50 values by entry
Test system: HOP-18
assay_remarks: NCI tumour cell line growth inhibition, 48 h
The source made the active and inactive calls. No stated cut-off is given here; in the data, active = GI50 up to about 1.1 µM and inactive = higher.

| compound | GI50 |
| --- | --- |
| Cc1nc2nnnn2c2c1C(=O)Nc1ccccc1N2 | > 100 µM (inactive) |
| COc1ccc2ccc3c(c2c1)CN1CCc2cc(OC)c(OC)cc2C1C3 (stereo not drawn) | > 100 µM (inactive) |
| C/C=C(\N=C=S)C(=O)OC1C(COC(C)=O)OC([C@]2(O)CC(=O)C(N)=C(C(=O)O)C2=O)C(O)C1OC1CC(OC)C(O)([C@@H](C)OC(=O)[C@@H](C)CC)C(C)O1 (stereo partly drawn) | 16.8 µM (inactive) |
| C=C(C)CC(C)(c1cc2ccccc2n1C)N1CCOCC1 (stereo not drawn) | > 100 µM (inactive) |
| CC(C)(C)N/N=C(\C(=O)Nc1cccc(Cl)c1)C1C(=O)Nc2ccccc2[S+]1[O-] (stereo not drawn) | > 100 µM (inactive) |
| COC(=O)C12CC(C3CC31)C1CC12 (stereo not drawn) | > 100 µM (inactive) |
| CCCCCCCCCCCCSC(=S)c1c(C)[nH]n(-c2ccccc2)c1=O | > 50 µM (inactive) |
| CC1=C(C(=O)CC(=O)C(=O)Nc2ccc(Cl)cc2C)Sc2ccccc2N1 | > 100 µM (inactive) |
| COc1cccc(C(=O)N2CCc3ccccc32)c1OC | 34.1 µM (inactive) |
| N#CCCN(CCC#N)c1ccc(/C=C(/NC(=O)Nc2ccccc2Cl)NC(=O)c2cc([N+](=O)[O-])ccc2Cl)cc1 | > 100 µM (inactive) |
| Cc1cc(C)c(-c2noc(-c3ccc(Cl)cc3)c2C2=NCCCN2)c(C)c1 | 27.9 µM (inactive) |
| C=C(C)C1Cc2c(c3ccccc3n(C)c2=O)O1 (stereo not drawn) | > 100 µM (inactive) |
| COc1ccc(/C=C(\NC(=O)c2ccccc2)c2nc3ccccc3[nH]2)cc1OC | > 100 µM (inactive) |
| COc1ccc(CNc2cnc3ccc(N)cc3n2)cc1 | > 100 µM (inactive) |
| OCC1OC2c3ccccc3COC2C1OCc1ccccc1 (stereo not drawn) | > 100 µM (inactive) |
| CC1(C)O[C@@H](CCl)C[C@H](C#N)O1 | > 100 µM (inactive) |
| C#C[C@]1(O)CCC2C3CCc4cc(Oc5nc(F)nc(-n6c(C)nc7cc8ccccc8cc76)n5)ccc4C3CCC21C (stereo partly drawn) | 30.6 µM (inactive) |
| CC(O)CNC(=O)C(C)Oc1ccc(OCC2CCCCC2)cc1 (stereo not drawn) | > 100 µM (inactive) |
| O=c1/c(=C/c2ccccc2[N+](=O)[O-])sc2nnc(-c3cccnc3)n12 | > 100 µM (inactive) |
| O=C1OC2C(O)COC2(O)C1(O)Cc1c[nH]c2ccccc12 (stereo not drawn) | > 100 µM (inactive) |
| Cc1ccc(NC(=O)C2C(=O)N(c3ccc(C)cc3)C(=O)/C2=N\NC(N)=S)cc1 (stereo not drawn) | > 100 µM (inactive) |
| CCOC(=O)C(=O)Nc1ccc(Cl)cc1C | > 100 µM (inactive) |
| CC(Oc1ccc2c(-c3ccc(Cl)cc3)cc(=O)oc2c1)C(=O)O (stereo not drawn) | > 100 µM (inactive) |
